B1: EIF5 (parent)
chain: KQTIGNSCKACGYRGMLDTHHKLC

Variants of: B1
protocol: protein stability index of a GFP-peptide fusion (GPS, HEK-293T) (PSI 1-6); higher = more stable;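 note: lentivirally expressed fusions sorted by FACS into six bins by GFP to DsRed ratio, PSI derived from sequencing read proportions per bin multiplied by bin number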
condition-details: c terminus: a fixed tail appended
quantity-name: protein stability index

- polymer-sequence: "KQTPGNSCKACGYRGMLDTHHKLC [I4P]"
  measured: 3.44
- polymer-sequence: "KQTIGASCKACGYRGMLDTHHKLC [N6A]"
  measured: 3.1
- polymer-sequence: "KWTIGNSCKACGYRGMLDTHHKLC [Q2W]"
  measured: 1.93
- polymer-sequence: "KQTIGNSCKACGYRGMLDTNHKLC [H20N]"
  measured: 2.92
- polymer-sequence: "KQTCGNSCKACGYRGMLDTHHKLC [I4C]"
  measured: 3.24
- polymer-sequence: "KQTIGNSCKACGYRGMLDTHHKLK [C24K]"
  measured: 2.15
- polymer-sequence: "KQTIGYSCKACGYRGMLDTHHKLC [N6Y]"
  measured: 3.92
- polymer-sequence: "KQTIGNSCKACGYRGMLDTHVKLC [H21V]"
  measured: 3.29
- polymer-sequence: "KQTHGNSCKACGYRGMLDTHHKLC [I4H]"
  measured: 3.39
- polymer-sequence: "KQTIGNSYKACGYRGMLDTHHKLC [C8Y]"
  measured: 1.44
- polymer-sequence: "KQTIGNSCKAMGYRGMLDTHHKLC [C11M]"
  measured: 1.73

Taken from the supplement of paper PMC10567573.
